# IC50 listing for each entry below
- system: human TRPM8 (Homo sapiens)
- Sequence (Q7Z2W7 whole entry): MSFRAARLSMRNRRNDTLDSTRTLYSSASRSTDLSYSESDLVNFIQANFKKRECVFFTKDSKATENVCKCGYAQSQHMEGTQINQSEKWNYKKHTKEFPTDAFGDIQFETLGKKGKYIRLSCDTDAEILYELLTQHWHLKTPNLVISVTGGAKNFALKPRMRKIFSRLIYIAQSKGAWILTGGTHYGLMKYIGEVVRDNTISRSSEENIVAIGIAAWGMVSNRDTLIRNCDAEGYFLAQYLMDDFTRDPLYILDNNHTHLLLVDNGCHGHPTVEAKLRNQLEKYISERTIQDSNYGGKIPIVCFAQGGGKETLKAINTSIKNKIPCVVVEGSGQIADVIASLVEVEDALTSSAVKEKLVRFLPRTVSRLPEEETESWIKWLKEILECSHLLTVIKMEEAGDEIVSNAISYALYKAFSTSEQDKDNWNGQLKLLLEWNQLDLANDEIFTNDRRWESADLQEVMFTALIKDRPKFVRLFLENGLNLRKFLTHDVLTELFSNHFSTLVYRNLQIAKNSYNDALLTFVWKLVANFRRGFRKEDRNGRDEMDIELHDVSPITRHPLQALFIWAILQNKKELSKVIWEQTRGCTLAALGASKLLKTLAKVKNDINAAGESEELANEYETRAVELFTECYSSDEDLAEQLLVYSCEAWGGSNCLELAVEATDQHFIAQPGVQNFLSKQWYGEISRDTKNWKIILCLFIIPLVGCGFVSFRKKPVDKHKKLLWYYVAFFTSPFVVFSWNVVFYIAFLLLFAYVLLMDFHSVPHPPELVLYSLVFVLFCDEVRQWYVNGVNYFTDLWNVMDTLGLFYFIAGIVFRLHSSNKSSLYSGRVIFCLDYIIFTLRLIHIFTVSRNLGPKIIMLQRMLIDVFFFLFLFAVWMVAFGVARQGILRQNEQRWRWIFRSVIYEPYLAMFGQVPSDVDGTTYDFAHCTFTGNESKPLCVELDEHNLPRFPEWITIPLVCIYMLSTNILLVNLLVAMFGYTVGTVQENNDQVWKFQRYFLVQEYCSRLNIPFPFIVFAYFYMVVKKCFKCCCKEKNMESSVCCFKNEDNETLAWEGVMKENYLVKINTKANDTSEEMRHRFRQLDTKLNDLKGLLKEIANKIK
- assay.overview: Menthol-induced Ca2+ influx in HEK293 cells stably expressing human TRPM8
- test.conditions: 30 microM menthol-induced Ca2+ influx, read-out: IC50 against TRPM8

COc1ccncc1-c1sc(C(=O)CN2C(=O)NC3(CCC(F)(F)CC3)C2=O)cc1C :: < 0.1 µM

Input line: Requested read-out: IC50. Entry: O=C(CN1C(=O)NC2(CCCCC2)C1=O)c1ccc(Oc2cccnn2)cc1
Output line: < 0.5 µM

Input line: Please give the measured IC50 for this molecule: Cc1ccncc1-c1ccc(C(=O)CN2C(=O)NC3(CCC(F)(F)CC3)C2=O)n1C
Output line: < 0.1 µM

Input line: # lookup: IC50 of Cc1c(N)cncc1-c1ccc(C(=O)CN2C(=O)NC3(CCC(F)(F)CC3)C2=O)cc1
Output line: < 0.1 µM

Input line: Record request: IC50 value, item O=C(CN1C(=O)NC2(CCC(F)(F)CC2)C1=O)c1ccc(-c2ncccc2F)cc1
Output line: < 0.1 µM

Input line: Entry O=C(CN1C(=O)NC2(CCC(F)(F)CC2)C1=O)c1ccc(-c2cccnc2NCCO)cc1 : reported IC50 = ?
Output line: < 0.5 µM

Input line: Would you mind telling me what IC50 value was observed for O=C(CN1C(=O)NC2(CCC(F)(F)CC2)C1=O)c1ccc(-c2cncc3ccccc23)cc1 ?
Output line: < 0.01 µM

Input line: GET /values?readout=IC50&item= Cc1nc2ccccc2n1-c1ccc(C(=O)CN2C(=O)NC3(CCCCCC3)C2=O)cc1
Output line: < 0.1 µM

Input line: Which measured IC50 value corresponds to O=C(CN1C(=O)NC2(CCC(F)(F)CC2)C1=O)c1ccc(-n2cnc3cncnc32)cc1 ?
Output line: < 0.5 µM

Input line: Field request: IC50 | item: N#Cc1ncccc1-c1ccc(C(=O)CN2C(=O)NC3(CCC(F)(F)CC3)C2=O)cc1
Output line: < 0.1 µM

Input line: Suppose we examine the molecule COCc1nc2cccnc2n1-c1ccc(C(=O)CN2C(=O)NC3(CCC(F)(F)CC3)C2=O)cc1 ; what IC50 value has been reported?
Output line: < 0.5 µM

Input line: Query: IC50; subject: COc1nccnc1-c1ccc(C(=O)CN2C(=O)NC3(CCC(F)(F)CC3)C2=O)cc1
Output line: < 0.1 µM

Input line: Can you look up the measured IC50 of Cc1ncccc1-c1ccc(C(=O)CN2C(=O)OC3(CCC(F)(F)CC3)C2=O)cc1 for me?
Output line: < 0.1 µM

Input line: Using the record for Cc1c(C(=O)CN2C(=O)NC3(CCC(F)(F)CC3)C2=O)ccn1-c1ccccc1 , report its IC50.
Output line: < 0.1 µM

Input line: I have this molecule here, O=C(CN1C(=O)NC2(CCC(F)(F)CC2)C1=O)c1ccc(-n2c(=O)[nH]c3ccccc32)cc1 , and I need its recorded IC50.
Output line: < 0.1 µM

Input line: Which IC50 is listed for Cc1ccccc1-c1ccc(C(=O)CN2C(=O)NC3(CCCCC3)C2=O)cc1C ?
Output line: < 0.1 µM
